Molecular target: T1, human CLDN18.2 (human)
T1 construct: the HEK293 line was made with a GenScript plasmid; also called hCLDN18.2
Test: competition FACS on HEK293/hCLDN18.2 cells; competitor 200 nM biotinylated PR004549
Maximum inhibition rate (%) overview
Reply with just the number (in %).

The following binders have reported results that may help.
PR004953 (antibody, V domains shown, anti-CLDN18.2 HCAb: VH fused to human IgG1 Fc, no light chain; also called R1029P024B07) VH: EVQLVESGGGVVQPGRSLRLSCAASGFTFSSYGMHWVRQAPGKGLEWVAVIGYDGRNKYYADSVKGRFTISRDNSKNTLFLQMDNLRAEDTALYYCARHFPSLPGTTDTFDIRGPGTMVTVSS : 93.2
PR004533 (antibody, V domains shown, anti-CLDN18.2 HCAb: VH fused to human IgG1 Fc, no light chain; also called R1029P021E10) VH: EVQLVESGGGLVQPGGSLRLSCAASGFTFSSYWMHWVRQVPGKGLVWVSRINSDGSRTIYADSVKGRFTISRDNAKNTLYLQMNSLRAEDTAVYYCARGEDHDILTGYPIRGQGTTVTVSS : 93.7
PR004536 (antibody, V domains shown, anti-CLDN18.2 HCAb: VH fused to human IgG1 Fc, no light chain; also called R1029P028A11) VH: EVQLVESGGGLVQPGGSLRLSCAASGFTFSSYWMYWVRQVPGKGLVWVSHINSDGSTTQYADSVKGRFTISRDNAKNMLYLQMNSLRAEDTAVYYCARDFPVLGGSHFDFQHWGQGTLVTVSS : 90.1
PR004950 (antibody, V domains shown, anti-CLDN18.2 HCAb: VH fused to human IgG1 Fc, no light chain; also called R1029P021F07) VH: EVQLVESGGGLVQPGGSLRLSCAASGFTFSAYWMHWVRQVPGKGLVWVSRINSDGSRTIYADSVKGRFTISRDNAKNTLYLQMNSLRAEDTAVYYCARGEDHDILTGYPIRGQGTMVTVSS : 94.3
PR004949 (antibody, V domains shown, anti-CLDN18.2 HCAb: VH fused to human IgG1 Fc, no light chain; also called R1029P021C02) VH: EVQLVESGGGLVQPGGSLRLSCAASGFTFSAYWMHWVRQVPGRGLVWVSRINSDGSRTIYADSVKGRFTISRDNAKNTLYLQMNSLRAEDTAVYLCARGEDHDMLTGYPVRGQGTMVTVSS : 94.2

Task item: Find the measured Maximum inhibition rate (%) of PR004227 (antibody, V domains shown, anti-CLDN18.2 HCAb: VH fused to human IgG1 Fc, no light chain; also called R1029P(CG20)001B02) VH: EVQLVESGGGLVQPGGSLRLSCAASGFTFSSYWMHWVRQAPGKGLEWVSYINNDGSSTRYADSVKGRFTISRDNAKNTLYLQMNSLRAEDTAVYYCTEAPPYGNYERDYWGQGTLVTVSS and report it.
Reply: 93.8

Task item: Find the measured Maximum inhibition rate (%) of PR004540 (antibody, V domains shown, anti-CLDN18.2 HCAb: VH fused to human IgG1 Fc, no light chain; also called R1029P037B07) VH: EVQLVESGGGLVQPGGSLRLSCAASGFTFSIYWMHWVRQVPGKGLVLVSRISSDGNYTSYADSVKGRFTISRDNAKNTLYLQMNSLRAEDTAVYLCARGEDHDMLTGYPVRGQGTTVTVSS and report it.
Reply: 89.2

Task item: Find the measured Maximum inhibition rate (%) of PR000400 (antibody, human IgG1, kappa, V domains shown, also called IMAB362 analogue) VH: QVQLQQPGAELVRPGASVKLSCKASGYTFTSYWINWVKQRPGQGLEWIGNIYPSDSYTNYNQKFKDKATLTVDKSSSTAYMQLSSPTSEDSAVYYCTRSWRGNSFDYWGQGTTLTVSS VL: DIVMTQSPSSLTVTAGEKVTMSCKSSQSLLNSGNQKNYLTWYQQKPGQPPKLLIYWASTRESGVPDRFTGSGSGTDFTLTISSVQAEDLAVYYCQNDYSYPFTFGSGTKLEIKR and report it.
Reply: 90.7
